Cited source for all entries: ChEMBL document CHEMBL1149254

target: Mitogen-activated protein kinase 14 (Homo sapiens, UniProt Q16539); test: Inhibition of human p38-alpha expressed in Escherichia coli
Sequence (Q16539 whole entry): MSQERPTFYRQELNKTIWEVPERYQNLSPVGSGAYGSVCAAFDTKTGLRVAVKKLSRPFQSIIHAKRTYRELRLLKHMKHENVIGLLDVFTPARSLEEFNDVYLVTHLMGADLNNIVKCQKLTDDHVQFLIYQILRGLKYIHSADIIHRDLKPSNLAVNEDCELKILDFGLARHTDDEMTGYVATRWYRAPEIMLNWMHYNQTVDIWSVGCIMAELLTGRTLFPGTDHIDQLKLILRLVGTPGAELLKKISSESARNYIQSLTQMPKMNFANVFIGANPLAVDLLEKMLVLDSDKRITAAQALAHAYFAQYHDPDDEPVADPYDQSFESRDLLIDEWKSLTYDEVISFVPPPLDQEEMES
For each of the molecules below, state its pIC50.
In plain terms, pIC50 is the concentration in mol/L turned into minus its base-10 logarithm.

In plain terms, Cc1ccc(C(=O)NC(C)C)cc1Nc1nc(N[C@H]2CCNC2)nc(N(C)CC(C)(C)C)n1 has a documented pIC50 of 7.29

In plain terms, CONC(=O)c1ccc(C)c(Nc2nc(N(C)CC(C)(C)C)nc(N3CCCNCC3)n2)c1 has a documented pIC50 of 7.28

In plain terms, Cc1ccc(C(N)=O)cc1Nc1nc(NCCc2ccc(F)cc2)nc(N[C@H]2CCNC2)n1 has a documented pIC50 of 6.64
